All values here come from patent US5624948A.

# MEASURED_TARGET: histamine H1-receptor (Cavia porcellus, UniProt P31389)
# Construct: histamine H1 -receptor site in guinea pig cerebellum
# Sequence (P31389 whole entry): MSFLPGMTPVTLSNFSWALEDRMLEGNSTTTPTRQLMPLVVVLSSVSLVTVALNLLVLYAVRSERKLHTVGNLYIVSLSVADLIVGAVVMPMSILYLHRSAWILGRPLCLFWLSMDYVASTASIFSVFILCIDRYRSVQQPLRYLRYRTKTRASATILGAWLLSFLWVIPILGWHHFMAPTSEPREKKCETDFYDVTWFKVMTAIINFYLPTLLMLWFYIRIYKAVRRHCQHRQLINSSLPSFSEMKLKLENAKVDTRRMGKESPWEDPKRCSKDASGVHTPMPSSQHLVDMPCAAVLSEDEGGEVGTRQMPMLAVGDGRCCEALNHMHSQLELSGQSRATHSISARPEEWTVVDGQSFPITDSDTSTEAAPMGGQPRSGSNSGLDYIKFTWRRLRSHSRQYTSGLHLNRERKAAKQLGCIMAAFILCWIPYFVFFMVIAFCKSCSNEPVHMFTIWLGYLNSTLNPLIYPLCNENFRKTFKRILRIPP
# ASSAY_DETAILS: receptor binding assay in blocking 3H-pyrilamine binding to histamine H1-receptor site in guinea pig cerebellum
# SETTINGS: read-out: 50% inhibitory activity (concentration producing 50% reduction of the binding of the labeled ligand)
pIC50: −log10 of the molar value.
VALUE_TYPE: pIC50

**Q:** Recorded pIC50 of `O=C(O)CCc1ccc(CCN2CCCN(c3nc4ccccc4n3Cc3ccc(F)cc3)CCC2)cc1` , please.
**A:** ~9.24
